src = patent US20130266566A1

# System Under Test: T1, mouse PAI-1 (mouse, UniProt P22777 24-401)
# T1 sequence: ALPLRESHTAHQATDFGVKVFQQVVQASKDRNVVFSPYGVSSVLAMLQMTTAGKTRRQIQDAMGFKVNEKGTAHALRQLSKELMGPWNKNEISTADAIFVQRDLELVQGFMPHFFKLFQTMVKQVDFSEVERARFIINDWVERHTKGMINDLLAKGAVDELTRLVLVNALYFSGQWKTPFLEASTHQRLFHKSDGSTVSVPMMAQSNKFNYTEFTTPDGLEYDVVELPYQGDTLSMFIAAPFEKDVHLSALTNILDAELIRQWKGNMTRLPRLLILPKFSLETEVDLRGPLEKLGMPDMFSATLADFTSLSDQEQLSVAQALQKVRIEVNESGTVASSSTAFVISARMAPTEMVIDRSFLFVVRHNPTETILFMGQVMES
# Test Details: cell-based or functional assay
Measure Name: Chromogenic IC50 ratio mouse/human (fold)
Output spec: scalar in fold, unitless text.

Requested read-out: Chromogenic IC50 ratio mouse/human. Entry: Antibody 27 IgG1, not germlined (antibody, V domains shown, IgG1; also called Ab 27) VH: QVQLQQSGAEVKKPGSSVKVSCKASGGAFSSYAISWVRQAPGQGLEWMGGIIPTFGTANYAQKFQGRVTITADESTSTAYMELSGLRSEDTAVYYCAREKRQWLEGHFDYWGRGTPVTVSS VL: DIQMTQSPSFLSASIGDRVTITCRASEGIYHNLAWYQQKPGKAPKLLIYRASSLASGAPSRFSGSGSGTDFTLTISSLQPDDFATYYCQQYSNYPLTFGGGTKLEIK
3.3
